- experimentalSystem: PDGF-BB (platelet-derived growth factor BB) (Homo sapiens) (UniProt P01127)
- Sequence (P01127 82-190): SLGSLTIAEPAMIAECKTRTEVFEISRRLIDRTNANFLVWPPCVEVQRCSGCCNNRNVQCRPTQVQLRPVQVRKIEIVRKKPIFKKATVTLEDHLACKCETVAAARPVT
- assay: filter
- runConditions: PDGF-5Heg-VEGF; NapdU, 2'-OMe

>  <sequenceText>
CGACAGCATGTATGCACATCTCCGTTCAAGTGCTTGTAGGATTTAAATGG [5169-4_100]

>  <experimentalSystem>
PDGF-BB (platelet-derived growth factor BB) (Homo sapiens) (UniProt P01127)

>  <Kd [pM]>
1.5

$$$$

* * *

- System: VEGF-121 (Homo sapiens), P15692-9
- Sequence: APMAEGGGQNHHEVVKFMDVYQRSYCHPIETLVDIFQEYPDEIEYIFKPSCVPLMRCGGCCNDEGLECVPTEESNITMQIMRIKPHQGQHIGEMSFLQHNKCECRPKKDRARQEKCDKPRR
- assay: filter
- runConditions: 2'-OMe-U at 12 in place of NapdU; other P are NapdU; 2'-OMe-U for NapdU
measurementType: Kd (nM)

>  <sequenceText>
AGCCGTTCAAGTGCTTGTAGGATTTAAATGGA [4867-31_76]

>  <measurementType>
Kd

>  <numericResult>
22.9

$$$$

* * *

Each entry below carries its recorded pKd.
- experimentalSystem: PDGF-BB (platelet-derived growth factor BB) (Homo sapiens)
- assay: filter
- runConditions: Tyr, MBn, FBn, Ib, 2Nap, Pe, Th, NE dU; Heg; 2'-OMe
pKd: −log10 of the molar value.

>  <sequenceText>
TTACGTTACACGCGTTTATAGCG [4149-8_251]

>  <experimentalSystem>
PDGF-BB (platelet-derived growth factor BB) (Homo sapiens)

>  <pKd>
< 8.00

$$$$
>  <sequenceText>
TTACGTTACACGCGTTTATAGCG [4149-8_250]

>  <experimentalSystem>
PDGF-BB (platelet-derived growth factor BB) (Homo sapiens)

>  <pKd>
< 8.00

$$$$

* * *

- Tested on: VEGF-121 (Homo sapiens), P15692-9
- Sequence: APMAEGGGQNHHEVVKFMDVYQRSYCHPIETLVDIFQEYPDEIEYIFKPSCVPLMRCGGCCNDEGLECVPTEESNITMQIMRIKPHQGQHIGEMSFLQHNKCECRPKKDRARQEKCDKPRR
- assay: cell_activity
- runConditions: NapdU at P; 2'-OMe 6,9,12,15,17,18,22,28,29; VEGFR2 phosphorylation, HUVEC

>  <sequenceText>
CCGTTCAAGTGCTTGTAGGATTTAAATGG [4867-31_192]

>  <IC50 [nM]>
2.1

$$$$

* * *

- experimentalSystem: PDGF-BB (platelet-derived growth factor BB) (Homo sapiens) (UniProt P01127)
- assay: filter
- runConditions: Bn-dU; Tyr-dU1; FBn-dU7; Ib-dU8; 2Nap-dU16; Pe-dU17; Th-dU18; Heg5; 2'-OMe A3, A11, A21, G24
pKd: −log10 of the molar value.

>  <sequenceText>
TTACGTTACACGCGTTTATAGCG [4149-8_278]

>  <pKd>
< 8.00

$$$$

* * *

- Test system: VEGF-121 (Homo sapiens), P15692-9
- Sequence: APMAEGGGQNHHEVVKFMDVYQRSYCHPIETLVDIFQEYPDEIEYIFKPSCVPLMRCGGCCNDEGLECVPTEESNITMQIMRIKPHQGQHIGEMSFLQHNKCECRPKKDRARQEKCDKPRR
- assay: filter
- runConditions: P=Nap-dU; C3 spacer at 2
measurementType: Kd (nM)

>  <sequenceText>
CCTCCATCAGCCGTTCAAGTGCTTGTAGGATTTAAATGGAATTGGAGGA [4867-15_25]

>  <outputUnit>
nM

>  <numericResult>
0.13

$$$$

* * *

- experimentalSystem: PDGF-BB (platelet-derived growth factor BB) (Homo sapiens) (UniProt P01127)
- assay: filter
- runConditions: NapdU at 11,13,19,21; dT at 9; dT substitution

>  <sequenceText>
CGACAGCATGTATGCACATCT [5169-4_54]

>  <outputUnit>
nM

>  <Kd>
44

$$$$

* * *

- System: VEGF-121 (Homo sapiens), P15692-9
- Sequence: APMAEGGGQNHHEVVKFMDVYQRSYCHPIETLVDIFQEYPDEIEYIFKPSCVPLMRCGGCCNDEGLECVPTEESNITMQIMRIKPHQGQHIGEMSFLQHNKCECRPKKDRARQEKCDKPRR
- assay: filter
- runConditions: as 4867-31_192; PS 3' of 9; 3' inverted dT

>  <sequenceText>
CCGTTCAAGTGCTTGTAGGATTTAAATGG [4867-31_439]

>  <Kd [nM]>
0.024

$$$$

* * *

- experimentalSystem: PDGF-BB (platelet-derived growth factor BB) (Homo sapiens)
- assay: filter
- runConditions: as 4149-8_379; 2'-OMe 15; NapdU 16

>  <sequenceText>
TTACGTTACCGCGTTTATAGCG [4149-8_419]

>  <experimentalSystem>
PDGF-BB (platelet-derived growth factor BB) (Homo sapiens)

>  <Kd [nM]>
1.3

$$$$

* * *

- System: VEGF-121 (Homo sapiens), P15692-9
- Sequence: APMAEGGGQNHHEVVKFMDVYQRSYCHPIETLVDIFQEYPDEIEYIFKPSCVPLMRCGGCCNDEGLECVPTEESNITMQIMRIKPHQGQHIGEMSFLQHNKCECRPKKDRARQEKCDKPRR
- assay: filter
- runConditions: NapdU at 4,5,10,13,14,16,21,23,27; 2'-OMe at C6,G9,C12,G15,A17,G18,G28,G29 and 2'-OMe-NapU22; 3'-inverted dT in Tables 26-27; 3'-idT; Table 27 gives 3.1E-11, Table 21 2.3E-11
pKd: −log10 of the molar value.

>  <sequenceText>
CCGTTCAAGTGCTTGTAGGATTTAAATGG [4867-31_192]

>  <pKd>
10.96

$$$$

* * *

- System: VEGF-165 (Homo sapiens), P15692-4
- Sequence: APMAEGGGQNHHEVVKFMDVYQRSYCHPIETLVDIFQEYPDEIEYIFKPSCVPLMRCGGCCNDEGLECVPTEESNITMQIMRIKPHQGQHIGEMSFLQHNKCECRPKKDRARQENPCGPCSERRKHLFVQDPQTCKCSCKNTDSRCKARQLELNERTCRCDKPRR
- assay: filter
- runConditions: P=Nap-dU; VEGF
measurementType: Kd (nM)

>  <sequenceText>
AGCCGTTCAAGTGCTTGTAGGATTTAAATGG [4867-31_51]

>  <measurementType>
Kd

>  <outputUnit>
nM

>  <numericResult>
0.196

$$$$

* * *

- experimentalSystem: PDGF-BB (platelet-derived growth factor BB) (Homo sapiens) (UniProt P01127)
- assay: filter
- runConditions: Bn-dU; Trp-dU16; Heg5; 2'-OMe A3, A11, A21, G24
measurementType: Kd

>  <sequenceText>
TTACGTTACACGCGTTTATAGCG [4149-8_179]

>  <result>
> 10 nM

$$$$

* * *

- Test system: VEGF-121 (Homo sapiens), P15692-9
- Sequence: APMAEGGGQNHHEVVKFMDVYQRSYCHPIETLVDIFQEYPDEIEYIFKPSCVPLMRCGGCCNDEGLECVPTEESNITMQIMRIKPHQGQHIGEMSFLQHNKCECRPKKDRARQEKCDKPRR
- assay: filter
- runConditions: P=Nap-dU; C3 spacer at 45

>  <sequenceText>
CCCTCCATCAGCCGTTCAAGTGCTTGTAGGATTTAAATGGAATTGAGGA [4867-15_68]

>  <Kd, nM>
0.32

$$$$

* * *

- experimentalSystem: PDGF-BB (platelet-derived growth factor BB) (Homo sapiens)
- assay: filter
- runConditions: all Z are BndU, rest DNA; SB18T, 37 C
Binary label based on Kd with cut-off 0.04 nM: below gives Y, not below gives N.

>  <sequenceText>
TACGACTACGTTACACGCGTTTATAGCGTCAACCCGAGTGAACA [4149-8_13]

>  <labelValue>
N

$$$$
>  <sequenceText>
ATCTCTTACGACTACGTTACACGCGTTTATAGCGTCAACCCG [4149-8_7]

>  <labelValue>
Y

$$$$
>  <sequenceText>
TTACACGCGTTTATAGCGTCAACCCGAGTGAACA [4149-8_18]

>  <labelValue>
N

$$$$
>  <sequenceText>
CTCTTACGACTACGTTACACGCGTTTATAGCGTC [4149-8_27]

>  <labelValue>
N

$$$$
>  <sequenceText>
CTCTTACGACTACGTTACACGCGTTTATAGCGTCAACCCGAGTGAACA [4149-8_11]

>  <labelValue>
Y

$$$$
>  <sequenceText>
ATCTCTTACGACTACGTTACACGCGTTTATAGCGTC [4149-8_10]

>  <labelValue>
N

$$$$
>  <sequenceText>
CGACTACGTTACACGCGTTTATAGCGTCAACCCGAGTGAACA [4149-8_14]

>  <labelValue>
N

$$$$
